Listing of recorded % Inhibition by entry.
Tested on: human Factor 7 mRNA
Test: Antisense inhibition of human Factor 7 with short (14-mer) oligonucleotides in HepB3 cells, electroporation 1,000 nM
Type: cell-based
Conditions: electroporation, 1,000 nM antisense oligonucleotide, approximately 24 hours, Factor 7 mRNA relative to untreated control cells
Protocol: Short antisense oligonucleotides (shortmers) were designed to target a Factor 7 nucleic acid. The shortmers in Table 17 were designed as 2-10-2 MOE gapmers. […] Shortmers were evaluated for their ability to reduce human Factor 7 mRNA in HepB3 cells and compared with one 5-10-5 chimeric oligonucleotide from Table 16, ISIS 407939. […] After a treatment period of approximately 24 hours, RNA was isolated from the cells and Factor 7 mRNA levels were measured by real-time RT-PCR, as described herein. […]
Strand notation (5' to 3'): a small letter for the sugar, then the base; units joined by * are phosphorothioate-linked, units joined directly phosphodiester-linked; [ ] holds rarer units or linkages, { } end groups; capitals alone tell only the bases. e = 2'-O-(2-methoxyethyl) (MOE); [5mC] = 5-methylcytosine; d = 2'-deoxy (DNA)
The figure you give is taken to be in %; do not add the unit.

Report % Inhibition for 435678 (antisense eA*eG*dG*dT*d[5mC]*dG*dT*dG*d[5mC]*dT*d[5mC]*dG*e[5mC]*e[5mC]) [compound 435678] please.
67

// lookup % Inhibition for 435765 (antisense e[5mC]*eA*dA*dA*dG*dT*dT*d[5mC]*dT*d[5mC]*dT*dG*e[5mC]*e[5mC]) [compound 435765]
1

Could you share which % Inhibition value was measured for 435819 (antisense eT*eT*dT*dG*dT*d[5mC]*d[5mC]*dA*dG*dT*dA*dA*eG*eA) [compound 435819] ?
1

Quick check: % Inhibition of 435715 (antisense e[5mC]*eA*dG*d[5mC]*d[5mC]*dA*d[5mC]*dT*d[5mC]*dG*dA*dT*eG*eT) [compound 435715] ?
35

Dear colleague, I am looking for the recorded % Inhibition of the following substance: 435688 (antisense eA*e[5mC]*d[5mC]*dA*d[5mC]*dA*dT*dG*dG*dT*d[5mC]*dA*eG*eT) [compound 435688]
0

% Inhibition lookup needed for 435498 (antisense eT*eG*dG*dG*dA*dG*dA*d[5mC]*d[5mC]*d[5mC]*dT*dG*eG*eT) [compound 435498] , thanks.
37
